target: T1, cynomolgus monkey CD3 E&D complex protein (Sino Biological Inc., CT032-00323H) (cynomolgus monkey, UniProt Q95LI5 22-117; Q95LI8 22-105); assay: BLI, antibody on sensor
T1 construct: bought heterodimer
T1 sequence (Q95LI5 22-117, chain 1 of 2): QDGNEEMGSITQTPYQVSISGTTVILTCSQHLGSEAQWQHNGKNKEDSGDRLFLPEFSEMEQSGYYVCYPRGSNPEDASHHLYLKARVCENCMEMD
T1 sequence (Q95LI8 22-105, chain 2 of 2): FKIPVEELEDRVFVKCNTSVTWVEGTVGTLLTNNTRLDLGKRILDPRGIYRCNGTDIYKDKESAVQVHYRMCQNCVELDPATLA
EXPERIMENTAL ENDPOINT: binding result

[[record]]
binder = "hzsp34.34 (antibody, human IgG1, kappa, L234A L235A, V domains shown, IgG1 L234A L235A, kappa) VH: EVQLVESGGGLVQPGGSLKLSCAASGFTFNTYAMNWVRQASGKGLEWVGRIRSKYNNYATYYADSVKDRFTISRDDSKSTLYLQMNSLKTEDTAVYYCARHGNFGQSYVSWFAYWGQGTTVTVSS VL: EIVMTQSPATLSVSPGERATLSCRSSTGAVTTSNYANWVQQKPGQAPRLLIGGTNKRAPGVPARFSGSGSGTEFTLTISSLQSEDFAVYYCALWYSNLWVFGQGTKLTVLR"
experimental_endpoint = "binding result"
experimental_result = "no binding"

[[record]]
binder = "hzsp34.33 (antibody, human IgG1, kappa, L234A L235A, V domains shown, IgG1 L234A L235A, kappa) VH: EVQLVESGGGLVQPGGSLKLSCAASGFTFNTYAMNWVRQASGKGLEWVGRIRSKYNNYATYYADSVKDRFTISRDDSKSTLYLQMNSLKTEDTAVYYCARHGNFGNSYVSWFAYWGQGTTVTVSS VL: EIVMTQSPATLSVSPGERATLSCRSSTGAVTTSNYANWVQQKPGQAPRLLIGGTNKRAPGVPARFSGSGSGTEFTLTISSLQSEDFAVYYCALWYSNLWVFGQGTKLTVLR"
experimental_endpoint = "binding result"
experimental_result = "no binding"

[[record]]
binder = "hzsp34.32 (antibody, human IgG1, kappa, L234A L235A, V domains shown, IgG1 L234A L235A, kappa) VH: EVQLVESGGGLVQPGGSLKLSCAASGFTFNTYAMNWVRQASGKGLEWVGRIRSKYNNYATYYADSVKDRFTISRDDSKNTLYLQMNSLKTEDTAVYYCARHGNFGNSYVSWFAYWGQGTTVTVSS VL: EIVMTQSPATLSVSPGERATLSCRSSTGAVTTSNYANWVQQKPGQAPRLLIGGTNKRAPGVPARFSGSGSGTEFTLTISSLQSEDFAVYYCALWYSNLWVFGQGTKLTVLR"
experimental_endpoint = "binding result"
experimental_result = "no binding"

